In this section, each of the compounds is paired with its reported T/C.
System: CD2F1 mice, L1210 leukemia ip, survival T/C
RUN DESCRIPTION: NCI In Vivo Anticancer Drug Screen. Data for tumor model L1210 Leukemia (intraperitoneal) in CD2F1 (CDF1) mice
ASSAY CONDITIONS: endpoint: mean survival time; dose: 10.0 mg/kg/injection; schedule: Q01DX001 (ip); vehicle: saline; higher = longer survival
Inconclusive results and toxic doses are left out.

INSERT INTO assay_data (compound, reading) VALUES
  ('COC1OC(CSC#N)C2OC(C)(C)OC12 (stereo not given)', '101 % of control');

Query string: Requested field: T/C. Item: O=c1cc2cccccc-2cc1O
Result string: 97 % of control

Query string: State the recorded T/C for this entry: Cc1ccc2c(ccc3nc(N)nc(N)c32)c1
Result string: 89 % of control

Query string: Looking for the measured T/C of O=C(O)c1cc[c]([Hg][S]c2ncnc3nc[nH]c23)cc1 , can you help?
Result string: 98 % of control

Query string: Name the reported T/C value associated with the compound COc1ccc(C[As+](c2ccccc2)(c2ccccc2)c2ccccc2)cc1
Result string: 95 % of control
